Recorded measurements of aptazyme ON/OFF ratio, one per entry
B1: Pistol ribozyme (parent)
chain: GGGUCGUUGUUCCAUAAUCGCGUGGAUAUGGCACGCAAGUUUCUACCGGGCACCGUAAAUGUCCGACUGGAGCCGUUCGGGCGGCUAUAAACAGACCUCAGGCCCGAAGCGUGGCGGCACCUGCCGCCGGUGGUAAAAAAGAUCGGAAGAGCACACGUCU

variants of: B1; test: aptazyme ON/OFF ratio, guanine; higher = stronger switching; co-transcriptional cleavage with and without guanine
property: aptazyme ON/OFF ratio

alteration="U7C G9A U10G U11G C12A C13A" readoutvalue=1.17
alteration="U7C U8A U10C U11C C12U" readoutvalue=1.09
alteration="U7G G9A U10G U11C C12A" readoutvalue=1.12
alteration="U8C G9U C12A C13G" readoutvalue=1.12
alteration="U8C U10C U11G C12U C13A" readoutvalue=1.26
alteration="U7A U8G G9U U11C C12G C13A" readoutvalue=1.16
alteration="U7A U8G G9A U10G U11A C12U C13A" readoutvalue=1.7
alteration="U7G U8C G9A U10A U11G C13A" readoutvalue=1.13
alteration="U7A U8C C12G C13A" readoutvalue=1.18
alteration="U7G G9U U10C U11C C12G" readoutvalue=1.23
alteration="U7C U10A C12A C13A" readoutvalue=1.16
alteration="U7A U8G G9A U10A C13A" readoutvalue=1.41
alteration="U7A U8C G9U U10A C12A C13U" readoutvalue=1.18
alteration="U7A U8A G9A U10G U11G C12G C13A" readoutvalue=1.5
alteration="U7G U8A G9U C12G C13G" readoutvalue=1.07
alteration="U8C C12G C13U" readoutvalue=1.31
alteration="U8G U10G U11G C12U C13G" readoutvalue=1.31
alteration="U8A G9A U10A U11C C12A C13G" readoutvalue=1.16
alteration="U7G U8A G9C U10C U11A C12G" readoutvalue=1.05
alteration="U8A U10G U11C C13G" readoutvalue=1.11
alteration="U7C U8A G9C U11A C12A C13A" readoutvalue=1.11
alteration="U7A U8C G9C U10C U11C C12A C13G" readoutvalue=1.03
alteration="U7C G9U U10G U11G C12G" readoutvalue=1.14
alteration="U8G U10C U11C C13A" readoutvalue=1.03
alteration="U10C U11G C13G" readoutvalue=1.22
alteration="U7A U8G G9C U10A U11C" readoutvalue=1.04
alteration="U7G U8C G9C U10A U11C C12G C13A" readoutvalue=1.33
alteration="U8G G9C U10A C12A C13G" readoutvalue=1.12
alteration="U7A G9U U10C C13U" readoutvalue=1.18
alteration="U7A G9C U10G U11G C13G" readoutvalue=1.17
alteration="U7A U8G U10A U11C C13A" readoutvalue=1.18
alteration="U7C U8A G9C U10G C12G C13G" readoutvalue=1.13
alteration="U7A U8C G9C U10G C12G" readoutvalue=1.12
alteration="U7C U8C U10A U11C C13U" readoutvalue=1.03
alteration="U7A U8C G9A U10G U11A C12U C13G" readoutvalue=1.14
alteration="U7G U8A G9A C12A C13G" readoutvalue=1.11
alteration="U7G U8A G9U U11G C12U C13A" readoutvalue=1.1
alteration="U7G U8A U11C C12A" readoutvalue=1.29
alteration="U7A U8G G9A C12G C13U" readoutvalue=1.37
alteration="U7C U8C G9U U10A U11C C12G C13U" readoutvalue=1.15
alteration="U7C U8G G9U U10A U11C C12A C13A" readoutvalue=1.16
alteration="U7C G9U U10A C12G C13G" readoutvalue=1.13
alteration="U7G G9C U11A C13G" readoutvalue=1.19
alteration="U8G G9A U10A U11A C12U" readoutvalue=1.35
alteration="U7G G9A U10C U11A C13U" readoutvalue=1.19
alteration="U7G G9C U10A C12A C13G" readoutvalue=1.09
alteration="U7C U8A G9C U10G U11C C12U C13U" readoutvalue=1.34
alteration="U7C U8A G9A U10A U11C C13A" readoutvalue=1.03
alteration="U8A U10C U11G C13U" readoutvalue=1.19
alteration="U7G U8A G9C U10A U11G C12A C13U" readoutvalue=1.04
alteration="U10A C12G C13A" readoutvalue=1.4
alteration="U10A U11G C12G C13G" readoutvalue=1.42
alteration="U7C U8C G9C U10A U11A C12U C13A" readoutvalue=1.03
alteration="U7C U8C G9A U10C C13G" readoutvalue=1.35
alteration="U7A G9C U10A U11G C12G" readoutvalue=1.09
alteration="U7A U8C U10A U11A C12A C13A" readoutvalue=1.07
alteration="U7A U8C U10C C12A C13U" readoutvalue=1.26
alteration="G9U U10C" readoutvalue=4.48
alteration="U7G G9U U10C U11G C13U" readoutvalue=1.38
alteration="U8G U11A C12A C13U" readoutvalue=1.28
alteration="U7C U8C G9C U10A U11C C12U C13G" readoutvalue=1.13
alteration="U8A U10G U11G C12U C13G" readoutvalue=1.28
alteration="U7A U8G G9U U11A C12U C13G" readoutvalue=1.26
alteration="U7C U8C C12A C13A" readoutvalue=1.23
alteration="U7C U8G G9U U11C C13G" readoutvalue=1.02
alteration="U7G U8C G9C U10C U11G C13A" readoutvalue=1.07
alteration="U7G U8C U10A U11C" readoutvalue=1.04
alteration="U7G U8A G9A U11A C13A" readoutvalue=1.06
alteration="U7C G9A U10C U11A C12G C13A" readoutvalue=1.11
alteration="U7A U8G G9U U10C U11C" readoutvalue=1.15
alteration="U7A G9C U10A U11C C12A C13U" readoutvalue=1.09
alteration="U7A G9A U10C U11A C12U C13G" readoutvalue=1.23
alteration="U7C U8G G9C U11C C12A C13A" readoutvalue=1.12
alteration="U7G U8G U11A C12G C13A" readoutvalue=1.11
alteration="U7G U8C G9C U10G U11A C13U" readoutvalue=1.05
alteration="U7A G9A U10G U11G C13U" readoutvalue=1.09
alteration="U7G U8A G9C U10G U11G C12U C13A" readoutvalue=1.07
alteration="U8G G9A U11G C12U C13U" readoutvalue=1.24
alteration="U8C G9A U10A U11A C12G C13U" readoutvalue=1.21
alteration="U7C U8G G9U U11A C12A C13U" readoutvalue=1.21
alteration="U7A G9U U10A U11C C12U" readoutvalue=1.08
alteration="G9U C12U" readoutvalue=2.37
alteration="U7A U8A G9C U10A U11A C12A C13U" readoutvalue=1.14
alteration="U8A G9C U10A U11A C12U" readoutvalue=1.24
alteration="U7C U8G U10A U11C" readoutvalue=1.04
alteration="G9A U10C U11G C13A" readoutvalue=1.39
alteration="U8A G9A U10C U11C C13G" readoutvalue=1.03
alteration="U7G U8A G9C U10G U11C C13U" readoutvalue=1.02
alteration="U8G G9A U10A C13A" readoutvalue=1.25
alteration="U7G U8G G9U U10C U11G C12A C13A" readoutvalue=1.12
alteration="U10A C12A C13A" readoutvalue=1.22
